Data provenance is patent US20240217936A1.

Assay: Degradation of prodrug in rat plasma (release of dexmedetomidine, HPLC)
Format: in vitro ADME
Conditions: 37° C., 3 min
Protocol: The test prodrug was formulated as a 1 mg/mL of physiological saline solution, and then 100 μL of the prodrug solution was added to 900 μL of rat plasma. The test solution was vortexed for 30 s before incubation at 37° C. […] 100 μL of the supernatant was injected for detection by HPLC, and the concentration of dexmedetomidine was determined by an internal standard method. The degradation rate of the prodrug was calculated based on the concentration of dexmedetomidine. […]
Where a name gives a salt, the structure may show the parent alone.

| molecule | Degradation rate of prodrug %, % |
| --- | --- |
| CCOC(=O)OCn1cnc([C@@H](C)c2cccc(C)c2C)c1 [Compound 6-HCl] | 89 |
| CC(=O)OCn1cnc([C@@H](C)c2cccc(C)c2C)c1 [Compound 1-HCl] | 100 |
| Cc1cccc([C@H](C)c2cn(C(=O)OCC(C)C)cn2)c1C [Compound 4-HCl] | 100 |
| Cc1cccc([C@H](C)c2cn(COC(=O)OC3CCC3)cn2)c1C [Compound 14-HCl] | 98 |
| CC(=O)OC(C)n1cnc([C@@H](C)c2cccc(C)c2C)c1 (stereo partly drawn) [Compound 17-HCl] | 22 |
| CCCC(=O)OCn1cnc([C@@H](C)c2cccc(C)c2C)c1 [Compound 8-HCl] | 100 |
| CCOC(=O)COC(=O)OCn1cnc([C@@H](C)c2cccc(C)c2C)c1 [Compound 24-HCl] | 27 |
| Cc1cccc([C@H](C)c2cn(COP(=O)(O)O)cn2)c1C | 33 |
| CCC(=O)OCn1cnc([C@@H](C)c2cccc(C)c2C)c1 [Compound 10-HCl] | 97 |
| CCCOC(=O)n1cnc([C@@H](C)c2cccc(C)c2C)c1 [Compound 11-HCl] | 75 |
| COC(=O)OCn1cnc([C@@H](C)c2cccc(C)c2C)c1 [Compound 13-HCl] | 79 |
| Cc1cccc([C@H](C)c2cn(C(=O)OC(C)C)cn2)c1C [Compound 5-HCl] | 67 |
| Cc1cccc([C@H](C)c2cn(COC(=O)C(C)(C)C)cn2)c1C [Compound 3-HCl] | 96 |
| COC(=O)CCC(=O)OCn1cnc([C@@H](C)c2cccc(C)c2C)c1 [Compound 25-HCl] | 64 |
| Cc1cccc([C@H](C)c2cn(COC(=O)C(C)C)cn2)c1C [Compound 2-HCl] | 94 |
| Cc1cccc([C@H](C)c2cn(COC(=O)C3CC3)cn2)c1C [Compound 15-HCl] | 63 |
| Cc1cccc([C@H](C)c2cn(COC(=O)OC(C)C)cn2)c1C [Compound 7-HCl] | 88 |
| CCC(=O)OC(C)n1cnc([C@@H](C)c2cccc(C)c2C)c1 (stereo partly drawn) [Compound 18-HCl] | 48 |
